System: maize (Zea mays) r1-colored1 gene
Assay: HDR editing of an endogenous gene in maize protoplasts (RNP + dsDNA donor template, MiSeq sequencing)
Format: cell-based
Set-up: unit not given here
Settings: hypoxic conditions; 5 μM compound, 0.1% DMSO; B104 maize protoplasts; 48 hours at 26 degrees Celsius in the dark; average of triplicate samples
Hypoxia Avg. (HDR) values, listed per item
Please give only the number in your answer, with no unit.

O=C1N=C(NCc2cccs2)S/C1=C\c1ccc2ncccc2c1; 4.91
CC(C)(C)c1ccc(S(=O)(=O)NCc2ccc(C(=O)Nc3cccnc3)cc2)cc1; 5.00

Ask | Hypoxia Avg. (HDR) for `O=S(=O)(NCCCCCCc1ccccc1)c1cccc2c(Cl)cccc12` ?
Reply | 5.11
